Quick reference: growth of the listed items.
test system: NCI-H322M lung; assay: NCI-60 one-dose screen, 48 h (100 = growth as untreated, 0 = no growth, -100 = all killed); conditions: 10 µM unless noted
The panel holds about 83,000 compounds, 20% with a hit somewhere; the sample as a whole holds those more often.
Could you give me the number in %? Just the number is fine.

c1csc(-c2c3ccc(=[N+]4CCCCC4)cc-3oc3cc(N4CCCCC4)ccc23)c1
-78.5

Measured growth of CN(C)CCNc1nc2ccccc2c2c1c1c(n2Cc2ccccc2)-c2ccccc2C1=O : -79.5

Measured growth of S=C(Cc1ccc2c(c1)CCCC2)N1CCOCC1 : 94.8

Measured growth of CCCCCCCCn1ccc2cc(NC(=O)Cn3cc(CN4CCCC4)nn3)ccc21 : 49.5

Measured growth of Cn1c(-c2c(N)n(Cc3ccc(C(F)(F)F)cc3)c3nc(C#N)c(C#N)nc23)nc2ccccc21 : -4.98

Measured growth of O=C(Nc1ccccc1-c1nc2ccccc2c(=O)[nH]1)c1cc2ccccc2[nH]1 : 84.2

Measured growth of CC(C)CC(NC(=O)CN(Cc1ccccc1)S(C)(=O)=O)C(=O)O (stereo not drawn) : 93.8

Measured growth of Oc1c(CN2CCCC2)cc(COCc2ccc(Br)cc2)c2cccnc12 : -5.34

* * *

tested on: NCI-H23 lung; test: NCI-60 one-dose screen, 48 h; settings: 10 µM unless noted
The panel holds about 83,000 compounds, 20% with a hit somewhere; the sample as a whole holds those more often. The source made the active and inactive calls. Rule for the calls: active = growth percent below 10; inactive = the rest.
Select the matching outcome among 1 (active), 0 (inactive)

NCCCNc1nc2ccccc2c2c(=O)c3cccc(Cl)c3sc12
0
C=C1C(=O)O[C@H]2[C@H]1CC/C(CNC(=O)/C=C/c1ccc(Cl)cc1Cl)=C\CC[C@@]1(C)O[C@@H]21
1

Outcome logged for N#C/C(=C\c1ccc2c(c1)OCO2)n1nnc2cc(F)c(F)cc21 in this assay: 0

Outcome logged for CNC(=O)CCN1CCN(CC/C=C2\c3ccccc3Sc3ccc(Cl)cc32)CC1 in this assay: 0

Outcome logged for O=C(Nc1cccc(C(F)(F)F)c1)Nc1cccc(C(F)(F)F)c1 in this assay: 1

Outcome logged for Cc1nn(-c2ccccc2)c(Cl)c1/C=C(/NC(=O)c1ccccc1)c1nc2ccccc2[nH]1 in this assay: 0

Outcome logged for CC(=O)OC[C@H]1OC(Sc2sc(C(=O)c3ccc(Br)cc3)c(N)c2-c2nc3ccccc3s2)[C@H](OC(C)=O)[C@@H](OC(C)=O)[C@@H]1OC(C)=O (stereo not given in full) in this assay: 0

Outcome logged for O=C(Nc1ccccc1Cl)Oc1ccc(-c2ccccc2)cc1 in this assay: 0

Outcome logged for CN(C)CCC=C1c2ccccc2C(C)(C)c2ccccc21 in this assay: 0

Outcome logged for Cc1ccc(S(=O)(=O)n2cc(CNc3ccc(N4CCOCC4=O)cc3)c3ccccc32)cc1 in this assay: 0

Outcome logged for N=C1CCC(=N)c2c1c(O)c1ccccc1c2O in this assay: 0

Outcome logged for Cc1ccccc1NC(=O)N/C(N)=N/c1nc(-c2cccc([N+](=O)[O-])c2)cs1 in this assay: 0

Outcome logged for COc1ccc(C2c3ccc4ccccc4c3Oc3nc(C)[nH]c(=O)c32)cc1 (stereo not given) in this assay: 0

Outcome logged for COc1cccc(-c2nc3sccn3c2-c2ccnc(NCCNS(=O)(=O)c3cccc(Cl)c3)c2)c1 in this assay: 0

Outcome logged for C[C@@H]1N=C(c2ccc3ccccc3n2)Nc2nc3ccccn3c2C1=O in this assay: 0

Outcome logged for O=C(O)C1CCC(=O)N1C(=O)OCc1ccccc1 (stereo not given) in this assay: 0

Outcome logged for O=C(COc1ccc(/C=C2\Oc3ccccc3C2=O)cc1)Nc1nc2ccccc2s1 in this assay: 0

Outcome logged for COc1ccc(N2CCN(c3nc(-c4cc(OC)c(OC)c(OC)c4)nc4ccccc34)CC2)cc1 in this assay: 0

Outcome logged for CCOC(=O)C/C(C)=N\NC(=O)c1ccncc1 in this assay: 0

Outcome logged for COc1cc(CCC[P+](c2ccccc2)(c2ccccc2)c2ccccc2)cc2c1OCO2 in this assay: 0
